The reader will find reported pIC50 values listed item by item below.
- target: T1, hRAGE-Fc (human, UniProt Q15109 23-342, biotin label in the selections and HTRF assays)
- T1 construct: extracellular domain; also called biotin labeled hRAGE-Fc; Biotin-labeled RAGE-Fc; not shown: Fc part
- T1 sequence (Q15109 23-342): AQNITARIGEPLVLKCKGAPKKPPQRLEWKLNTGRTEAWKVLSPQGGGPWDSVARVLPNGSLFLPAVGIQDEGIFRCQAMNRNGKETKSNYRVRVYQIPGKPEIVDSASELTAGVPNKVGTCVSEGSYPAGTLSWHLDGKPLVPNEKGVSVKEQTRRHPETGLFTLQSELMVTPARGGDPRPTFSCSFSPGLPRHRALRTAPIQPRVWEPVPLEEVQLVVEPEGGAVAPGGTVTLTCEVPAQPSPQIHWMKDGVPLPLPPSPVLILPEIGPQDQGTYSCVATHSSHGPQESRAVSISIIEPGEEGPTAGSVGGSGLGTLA
- assay-notes: HTRF competition, scFv vs labelled parental XT-M4 (competitor) on hRAGE
Answer as the number alone; pIC50 is minus log10 of concentration in mol/L.

Here's what some known entries look like.
| binder | pIC50 |
| --- | --- |
| 3G5 scFv (scFv) scFv: DIQMTQSPSSLSASVGDRVTITCRASQDVGIYVNWFQQKPGKAPRRLIYRATNLADGVPSRFSGSRSGTDFTLTISSLQPEDFATYYCLEFDEHPLTFGGGTKVEIKDGGGSGGGGSGGGGSSEVQLVESGGGLVQPGGSLRLSCAASGFTFNNYWMTWVRQAPGKGLEWVASIDNSGDNTYYPDSVKDRFTISRDNAKNSLYLQMNSLRAEDTAVYYCARGGDILDSLPYWGQGTLVTVSS | 9.06 |
| 6B2 scFv (scFv) scFv: DIQMTQSPSSLSASVGDRVTITCRASQDVGIYVNWFQQKPGKAPRRLIYRATNLADGVPSRFSGSRSGTDFTLTISSLQPEDFATYYCLEFDEHPLTFGGGTKVEIKDGGGSGGGGSGGGGSSEVQLVESGGGLVQPGGSLRLSCAASGFTFNNYWMTWVRQAPGKGLEWVASIDNSGDNTYYPDSVKDRFTISRDNAKNSLYLQMNSLRAEDTAVYYCARGGDIRVGLDVWGQGTLVTVSS | 8.75 |
| S2R3A1_2E6 scFv (scFv, also called 2E6 (c)) scFv: DIQMTQSPSSLSASVGDRVTITCRASQDVGIYVNWFQQKPGKAPRRLIYRATNLADGVPSRFSGSRSGTDFTLTISSLQPEDFATYYCLEFDEHPLTFGGGTKVEIKDGGGSGGGGSGGGGNSEVQLVESGVGLVQPGGSLRLSCAASGFTFNNYWMTWVRQAPGKGLEWVASIDNSGDNTYYPDSVKDRFTISRDNAKNSLYLQMNSLRAEDTAVYYCARGGDITNGLDYWGQGTLVTVSS | 8.72 |

What value of measured pIC50 is listed for 3D2 scFv (scFv) scFv: DIQMTQSPSSLSASVGDRVTITCRASQDVGIYVNWFQQKPGKAPRRLIYRATNLADGVPSRFSGSRSGTDFTLTISSLQPEDFATYYCLEFDEHPLTFGGGTKVEIKDGGGSGGGGSGGGGSSEVQLVESGGGLVQPGGSLRLSCAASGFTFNNYWMTWVRQAPGKGLEWVASIDNSGDNTYYPDSVKDRFTISRDNAKNSLYLQMNSLRAEDTAVYYCARGGDIRVSLDHWGQGTLVTVSS ?
8.90
